Taken from paper doi:10.1101/706168v1.

target: TASK-1 (K2P3.1), wild type (Homo sapiens, UniProt O14649); test: two-electrode voltage clamp, Xenopus oocytes
Sequence (O14649 whole entry): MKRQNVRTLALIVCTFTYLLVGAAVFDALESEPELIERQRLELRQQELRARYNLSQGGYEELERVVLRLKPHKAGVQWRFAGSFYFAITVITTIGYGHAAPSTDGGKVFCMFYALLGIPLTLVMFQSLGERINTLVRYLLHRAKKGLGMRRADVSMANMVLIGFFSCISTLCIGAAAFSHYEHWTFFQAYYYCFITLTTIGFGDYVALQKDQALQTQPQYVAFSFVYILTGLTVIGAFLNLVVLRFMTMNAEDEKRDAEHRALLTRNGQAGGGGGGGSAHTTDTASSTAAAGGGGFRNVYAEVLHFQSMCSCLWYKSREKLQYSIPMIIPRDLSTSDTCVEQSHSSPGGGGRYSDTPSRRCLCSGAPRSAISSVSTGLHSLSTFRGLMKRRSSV
Provide the recorded EC50 for the entries that follow.
# answer = value followed by unit

Below are some compounds; for each one, tell me its EC50.
1. O=C(c1ccccc1F)N1CCN(Cc2c(-c3ccc(Br)cc3)nc3ccccn23)CC1 [BAY 1000493]
2. O=C(c1cccc(OC(F)(F)F)n1)N1CCN(Cc2c(-c3ccc(Cl)cc3)nc3ccccn23)CC1 [BAY 2341237]

Return:
1: 9.5 nM; 2: 7.6 nM

* * *

target: Cav1.2 (Homo sapiens, UniProt Q13936)
Sequence (Q13936 whole entry): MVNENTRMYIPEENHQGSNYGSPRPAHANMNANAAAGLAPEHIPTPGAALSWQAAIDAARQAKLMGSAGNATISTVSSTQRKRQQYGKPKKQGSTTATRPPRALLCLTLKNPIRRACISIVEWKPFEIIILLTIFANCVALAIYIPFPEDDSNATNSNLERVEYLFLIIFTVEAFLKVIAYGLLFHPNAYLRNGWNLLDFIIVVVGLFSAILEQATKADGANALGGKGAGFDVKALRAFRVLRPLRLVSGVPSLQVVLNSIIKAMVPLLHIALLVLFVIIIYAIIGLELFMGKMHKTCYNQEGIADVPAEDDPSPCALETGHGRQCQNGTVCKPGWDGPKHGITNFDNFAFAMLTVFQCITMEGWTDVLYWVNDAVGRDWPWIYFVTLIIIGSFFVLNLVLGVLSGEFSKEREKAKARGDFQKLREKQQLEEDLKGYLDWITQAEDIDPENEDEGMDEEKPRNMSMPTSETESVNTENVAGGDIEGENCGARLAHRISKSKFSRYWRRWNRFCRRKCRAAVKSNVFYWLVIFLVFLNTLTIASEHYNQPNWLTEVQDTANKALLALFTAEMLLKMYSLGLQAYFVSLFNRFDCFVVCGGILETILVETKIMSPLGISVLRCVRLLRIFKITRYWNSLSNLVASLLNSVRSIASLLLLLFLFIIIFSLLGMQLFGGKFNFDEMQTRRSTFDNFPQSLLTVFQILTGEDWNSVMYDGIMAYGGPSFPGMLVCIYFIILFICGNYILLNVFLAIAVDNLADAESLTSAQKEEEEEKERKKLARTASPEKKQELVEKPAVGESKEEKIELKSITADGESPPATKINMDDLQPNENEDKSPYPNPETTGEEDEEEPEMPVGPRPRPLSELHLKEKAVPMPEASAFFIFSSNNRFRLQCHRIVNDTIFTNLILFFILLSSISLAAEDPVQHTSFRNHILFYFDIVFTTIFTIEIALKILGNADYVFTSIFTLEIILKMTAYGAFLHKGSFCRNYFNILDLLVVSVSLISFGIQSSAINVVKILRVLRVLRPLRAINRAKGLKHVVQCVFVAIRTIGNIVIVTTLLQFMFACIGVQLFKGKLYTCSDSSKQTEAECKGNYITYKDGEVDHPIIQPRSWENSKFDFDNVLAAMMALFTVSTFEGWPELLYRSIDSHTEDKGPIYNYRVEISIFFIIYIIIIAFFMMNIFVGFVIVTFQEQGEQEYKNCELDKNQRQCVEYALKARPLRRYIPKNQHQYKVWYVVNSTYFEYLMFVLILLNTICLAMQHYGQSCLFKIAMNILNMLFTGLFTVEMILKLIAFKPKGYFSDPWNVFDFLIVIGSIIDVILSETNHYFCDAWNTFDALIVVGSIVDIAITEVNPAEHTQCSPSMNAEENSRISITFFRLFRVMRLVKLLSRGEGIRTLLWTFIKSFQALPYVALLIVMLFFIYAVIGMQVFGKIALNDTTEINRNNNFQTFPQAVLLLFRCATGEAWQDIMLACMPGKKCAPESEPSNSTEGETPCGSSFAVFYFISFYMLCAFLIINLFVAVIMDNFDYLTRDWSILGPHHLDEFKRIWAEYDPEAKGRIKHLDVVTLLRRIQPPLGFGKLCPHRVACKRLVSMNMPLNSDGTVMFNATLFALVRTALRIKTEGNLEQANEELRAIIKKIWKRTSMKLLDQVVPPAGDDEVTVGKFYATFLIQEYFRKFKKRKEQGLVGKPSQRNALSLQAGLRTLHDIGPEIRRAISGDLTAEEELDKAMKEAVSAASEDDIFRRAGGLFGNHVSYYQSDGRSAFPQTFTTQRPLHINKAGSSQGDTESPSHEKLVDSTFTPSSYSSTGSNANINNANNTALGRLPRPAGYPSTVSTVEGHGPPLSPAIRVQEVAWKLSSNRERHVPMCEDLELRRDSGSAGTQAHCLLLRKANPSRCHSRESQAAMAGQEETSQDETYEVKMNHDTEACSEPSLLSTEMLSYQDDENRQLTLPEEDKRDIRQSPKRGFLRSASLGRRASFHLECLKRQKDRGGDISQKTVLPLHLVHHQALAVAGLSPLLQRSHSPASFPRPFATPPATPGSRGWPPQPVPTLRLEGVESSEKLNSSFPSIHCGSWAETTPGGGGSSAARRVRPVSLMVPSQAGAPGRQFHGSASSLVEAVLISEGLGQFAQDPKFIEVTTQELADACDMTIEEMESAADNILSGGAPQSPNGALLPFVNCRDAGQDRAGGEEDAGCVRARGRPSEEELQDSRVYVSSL
pIC50: −log10 of the molar value.
readout-kind: pIC50

Enquiry: Dear colleague, I am looking for the recorded pIC50 of the following compound: O=C(c1ccccc1F)N1CCN(Cc2c(-c3ccc(Br)cc3)nc3ccccn23)CC1 [BAY 1000493]
Return: < 4.52
